Species: Homo sapiens
Experiment: Selectivity index, ratio of IC50 for human recombinant MAOA to IC50 for human recombinant MAOB
Short version: Ratio IC50 at least 50 is class 1, less is class 0.

>>> cat("N#Cc1ccc(SCc2ccc(Cl)cc2)cc1C#N")
"class 0"
>>> cat("N#Cc1ccc(SCc2ccc(Br)cc2)cc1")
"class 1"
>>> cat("N#Cc1ccc(SCc2ccccc2)cc1")
"class 0"
>>> cat("N#Cc1ccc(SCc2ccc(Br)cc2)cc1C#N")
"class 1"
>>> cat("N#Cc1ccc(OCc2ccccc2)cc1C#N")
"class 1"
>>> cat("N#Cc1ccc(Sc2ccc(Cl)cc2)cc1")
"class 0"
>>> cat("N#Cc1ccc(SCCc2ccccc2)cc1")
"class 0"
>>> cat("N#Cc1ccc(SC2CCCC2)cc1C#N")
"class 0"
>>> cat("N#Cc1ccc(SCCc2ccccc2)cc1C#N")
"class 1"
>>> cat("N#Cc1ccc(Sc2ccccc2)cc1C#N")
"class 0"
>>> cat("N#Cc1ccc(SCc2ccccc2)cc1C#N")
"class 1"

----------
Biological target: Amine oxidase [flavin-containing] B (Homo sapiens)
Sequence (P27338 whole entry): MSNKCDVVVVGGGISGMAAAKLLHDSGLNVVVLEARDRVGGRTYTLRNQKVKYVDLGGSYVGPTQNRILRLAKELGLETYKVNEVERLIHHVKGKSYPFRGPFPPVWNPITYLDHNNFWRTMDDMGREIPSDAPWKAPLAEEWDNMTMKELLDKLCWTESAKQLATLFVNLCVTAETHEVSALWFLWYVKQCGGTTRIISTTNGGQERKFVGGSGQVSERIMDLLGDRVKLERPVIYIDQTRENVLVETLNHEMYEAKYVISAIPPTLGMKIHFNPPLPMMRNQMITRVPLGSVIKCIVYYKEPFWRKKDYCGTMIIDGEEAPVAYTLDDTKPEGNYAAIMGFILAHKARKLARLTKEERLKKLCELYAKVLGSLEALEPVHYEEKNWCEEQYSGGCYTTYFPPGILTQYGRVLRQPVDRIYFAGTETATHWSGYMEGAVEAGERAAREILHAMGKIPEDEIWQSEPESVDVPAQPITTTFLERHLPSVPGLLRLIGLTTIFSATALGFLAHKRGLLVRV
Test: Inhibition of human recombinant MAOB expressed in insect cell microsomes using kynuramine as substrate after 20 mins by fluorescence spectrophotometric analysis
Design: species or system Microsome
pIC50: −log10 of the molar value.
measured.parameter: pIC50

>>> test_value("N#Cc1ccc(Sc2ccc(Cl)cc2)cc1C#N")
6.94
>>> test_value("COc1ccc(CSc2ccc(C#N)c(C#N)c2)cc1")
7.17
>>> test_value("N#Cc1ccc(SCCc2ccccc2)cc1C#N")
6.91
>>> test_value("N#Cc1ccc(Sc2ccc(Br)cc2)cc1C#N")
7.10

----------
Species: Homo sapiens
Test: Selectivity index, ratio of Ki for human recombinant MAOA to Ki for human recombinant MAOB
Define the label as y when Ratio Ki is strictly less than 30 and as n in all remaining cases.

>>> cat("N#Cc1ccc(SCc2ccc(Br)cc2)cc1C#N")
"n"
>>> cat("N#Cc1ccc(SCc2ccccc2)cc1")
"y"
>>> cat("N#Cc1ccc(SCCc2ccccc2)cc1C#N")
"n"
>>> cat("N#Cc1ccc(SCc2ccccc2)cc1C#N")
"n"
>>> cat("N#Cc1ccc(SCc2ccc(F)cc2)cc1C#N")
"n"
>>> cat("COc1ccc(CSc2ccc(C#N)cc2)cc1")
"y"
>>> cat("N#Cc1ccc(SC2CCCC2)cc1C#N")
"y"
>>> cat("N#Cc1ccc(SCc2ccc(Cl)cc2)cc1C#N")
"y"
>>> cat("N#Cc1ccc(Sc2ccc(Cl)cc2)cc1")
"y"
>>> cat("N#Cc1ccc(Sc2ccccc2)cc1")
"y"
